Test system: Bacteroides fragilis, Leo JA2
assayInfo: In vitro activity, concentration required for 50% inhibition (Table A)
Type: cell-based
measurementConditions: LEOJA2; Bacteroides fragilis Leo JA2; read-out: Concentration required for 50% inhibition (IC50)
Structures can show the parent of a compound that is named as a salt.
IC50: recorded values

{"columns": ["compound", "targetOfAssay", "IC50"],
 "data": [
  ["C=CCS[C@H]1C[C@@]2(C)C(=C1C(CCC=C(C)C)C(=O)O)C[C@@H](O)[C@H]1[C@@]3(C)CC[C@@H](O)[C@@H](C)[C@@H]3CC[C@@]12C (some centres unmarked) [Example 14]", "Bacteroides fragilis, Leo JA2", "4 µg/mL"],
  ["CC(C)=CCCC(C(=O)O)C1=C2C[C@@H](O)[C@H]3[C@@]4(C)CC[C@@H](O)[C@@H](C)[C@@H]4CC[C@]3(C)[C@@]2(C)C[C@@H]1Sc1ccc(Br)cc1 (some centres unmarked) [Example 2, sodium salt]", "Bacteroides fragilis, Leo JA2", "13 µg/mL"],
  ["CC(C)CCCC(C(=O)O)C1=C2C[C@@H](O)[C@H]3[C@@]4(C)CC[C@@H](O)[C@@H](C)[C@@H]4CC[C@]3(C)[C@@]2(C)C[C@@H]1Sc1ccccc1 (some centres unmarked) [Example 8, sodium salt]", "Bacteroides fragilis, Leo JA2", "> 100 µg/mL"],
  ["CC(C)=CCCC(C(=O)O)C1=C2C[C@@H](O)[C@H]3[C@@]4(C)CC[C@@H](O)[C@@H](C)[C@@H]4CC[C@]3(C)[C@@]2(C)C[C@@H]1SCc1ccco1 (some centres unmarked) [Example 23]", "Bacteroides fragilis, Leo JA2", "16 µg/mL"],
  ["CC(C)=CCCC(C(=O)O)C1=C2C[C@@H](O)[C@H]3[C@@]4(C)CC[C@@H](O)[C@@H](C)[C@@H]4CC[C@]3(C)[C@@]2(C)C[C@@H]1SC(C)(C)C (some centres unmarked) [Example 13]", "Bacteroides fragilis, Leo JA2", "2 µg/mL"]
]}

====

Tested on: Streptococcus pyogenes Leo EC
assayInfo: In vitro activity, concentration required for 50% inhibition (Table A)
Format: cell-based
measurementConditions: Streptococcus pyogenes Leo EC; read-out: Concentration required for 50% inhibition (IC50)
Structures can show the parent of a compound that is named as a salt.
experimentalReadout: IC50

{"columns": ["compound", "observed"],
 "data": [
  ["C=CCS[C@H]1C[C@@]2(C)C(=C1C(CCC=C(C)C)C(=O)O)C[C@@H](O)[C@H]1[C@@]3(C)CC[C@@H](O)[C@@H](C)[C@@H]3CC[C@@]12C (some centres unmarked)", "0.32 µg/mL"],
  ["CC(C)=CCCC(C(=O)O)C1=C2C[C@@H](O)[C@H]3[C@@]4(C)CC[C@@H](O)[C@@H](C)[C@@H]4CC[C@]3(C)[C@@]2(C)C[C@@H]1Sc1ccc(Br)cc1 (some centres unmarked) [Example 2, sodium salt]", "0.2 µg/mL"],
  ["CC(C)=CCCC(C(=O)O)C1=C2C[C@@H](O)[C@H]3[C@@]4(C)CC[C@@H](O)[C@@H](C)[C@@H]4CC[C@]3(C)[C@@]2(C)C[C@@H]1SCc1ccco1 (some centres unmarked)", "0.63 µg/mL"],
  ["CC(C)CCCC(C(=O)O)C1=C2C[C@@H](O)[C@H]3[C@@]4(C)CC[C@@H](O)[C@@H](C)[C@@H]4CC[C@]3(C)[C@@]2(C)C[C@@H]1Sc1ccccc1 (some centres unmarked) [Example 8, sodium salt]", "0.5 µg/mL"],
  ["CC(C)=CCCC(C(=O)O)C1=C2C[C@@H](O)[C@H]3[C@@]4(C)CC[C@@H](O)[C@@H](C)[C@@H]4CC[C@]3(C)[C@@]2(C)C[C@@H]1SC(C)(C)C (some centres unmarked)", "0.63 µg/mL"]
]}
